measured.on: HLA-A*0301 (human)
method: competition with 125I-labelled probe peptide for purified HLA, gel filtration
quantity.name: binding affinity ratio (IC50 of standard peptide / IC50 of test peptide)
Answer field: number only, no words.

| binder | readout.number |
| --- | --- |
| LSTLPETTVVR (modifications not checked) [HBV NUC 169 peptide …] | -0.0009 |

## Task Please indicate binding affinity ratio (IC50 of standard peptide / IC50 of test peptide) recorded for HLNPNKTKR (modifications not checked) [HBV POL 569 peptide …]
## Result 0.0025

## Task Give a short answer stating reported binding affinity ratio (IC50 of standard peptide / IC50 of test peptide) for LLDTASALYR (modifications not checked) [HBV NUC 30 peptide …] .
## Result 0.005

## Task Identify binding affinity ratio (IC50 of standard peptide / IC50 of test peptide) associated with the binder GMDIDPYK (modifications not checked) [HBV NUC 29 peptide GMDIDPYK]
## Result 0.0008

## Task Provide measured binding affinity ratio (IC50 of standard peptide / IC50 of test peptide) value, entry: NLEDPASR (modifications not checked) [HBV NUC 75 peptide NLEDPASR]
## Result -0.0002

## Task Please list binding affinity ratio (IC50 of standard peptide / IC50 of test peptide) recorded for the binder LTVNEKRR (modifications not checked) [HBV POL 99 peptide LTVNEKRR]
## Result -0.0002
